Assay: Pharmacokinetics accompanying the efficacy in the MCT-induced rat model of pulmonary hypertension
Format: in vivo, SD rats
Settings: Sprague-Dawley, rat, plasma, po; 30 mg/kg gavage, day 21, mean, n = 3
endpoint: AUC(0-t) (ng·h/mL)
Only the number, expressed in ng·h/mL, is required.

Q: Name the recorded AUC(0-t) for CCCNS(=O)(=O)Nc1ncnc(OCCOc2ncc(Br)cn2)c1-c1ccc(Br)cc1 [Macitentan, reference compound] .
Ans: 11000
